# Target system: Peroxisome proliferator-activated receptor gamma (Homo sapiens, UniProt P37231)
# Sequence (P37231 whole entry): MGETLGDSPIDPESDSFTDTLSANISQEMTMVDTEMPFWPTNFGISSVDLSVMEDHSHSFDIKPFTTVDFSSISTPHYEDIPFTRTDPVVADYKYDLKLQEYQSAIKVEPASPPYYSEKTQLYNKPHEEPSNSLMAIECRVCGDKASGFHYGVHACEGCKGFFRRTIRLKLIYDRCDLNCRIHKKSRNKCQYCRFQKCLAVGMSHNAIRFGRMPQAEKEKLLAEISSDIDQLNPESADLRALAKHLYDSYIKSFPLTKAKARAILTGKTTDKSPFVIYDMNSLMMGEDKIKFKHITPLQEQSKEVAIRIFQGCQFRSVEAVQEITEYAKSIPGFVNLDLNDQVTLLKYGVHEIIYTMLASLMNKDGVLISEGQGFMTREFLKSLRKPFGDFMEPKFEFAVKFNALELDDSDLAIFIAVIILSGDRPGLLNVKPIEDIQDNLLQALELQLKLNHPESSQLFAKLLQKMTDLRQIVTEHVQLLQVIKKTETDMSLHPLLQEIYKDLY
# Measurement protocol: In vitro inhibition of human Peroxisome proliferator activated receptor gamma
Quantity measured: IC50 (nM)

In the examples that follow, each entry is paired with its recorded IC50.
                                   molecule                             target_system  quantity_measured  value_units  quantitative_readout
0  COc1ccc2c(c1)c(Cc1cccc(OC(C)C(=O)O)c1)c(C)n2C(=O)c1ccc(Cl)cc1 (stereo not drawn)  Peroxisome proliferator-activated receptor gamma (Homo sapiens, UniProt P37231)               IC50           nM                    49
1  COc1ccc(C(=O)n2c(C)c(Cc3cccc(OC(C)(C)C(=O)O)c3)c3cc(OC(F)(F)F)ccc32)cc1  Peroxisome proliferator-activated receptor gamma (Homo sapiens, UniProt P37231)               IC50           nM                     3
2  COc1ccc2c(c1)c(Cc1cccc(C(=O)O)c1)c(C)n2C(=O)c1ccc(Cl)cc1  Peroxisome proliferator-activated receptor gamma (Homo sapiens, UniProt P37231)               IC50           nM                   208
3  COc1ccc(C(=O)n2c(C)c(Cc3ccccc3OC(C)(C)C(=O)O)c3cc(OC(F)(F)F)ccc32)cc1  Peroxisome proliferator-activated receptor gamma (Homo sapiens, UniProt P37231)               IC50           nM                     1

[P] COc1ccc2c(c1)c(Cc1ccccc1OCC(=O)O)c(C)n2C(=O)c1ccc(Cl)cc1
[Q] COc1ccc2c(c1)c(Cc1ccccc1C(=O)O)c(C)n2C(=O)c1ccc(Cl)cc1
Identify the entry with the smaller IC50: P or Q . Write down the label attached to your selection. P

[P] COc1ccc2c(c1)c(Cc1cccc(OC(C)(C)C(=O)O)c1)c(C)n2C(=O)c1ccc(Cl)cc1
[Q] COc1ccc2c(c1)c(Cc1ccc(OC(C)C(=O)O)cc1)c(C)n2C(=O)c1ccc(Cl)cc1 (stereo not drawn)
Lab note: check whether P or Q shows the higher recorded IC50. State your choice using its label. Q
(Q: 2140 nM, P: 45 nM)

====

# Target system: Peroxisome proliferator-activated receptor gamma (Homo sapiens, UniProt P37231)
# Measurement protocol: In vitro maximal activation of human Peroxisome proliferator activated receptor gamma in COS-1 cell transactivation assay
Quantity measured: EC50 (nM)

# example entries with known answers
                                   compound  quantitative_readout
0  COc1ccc2c(c1)c(Cc1cccc(OC(C)C(=O)O)c1)c(C)n2C(=O)c1ccc(Cl)cc1 (centres undefined)                    19
1  COc1ccc(C(=O)n2c(C)c(Cc3ccccc3OC(C)(C)C(=O)O)c3cc(OC(F)(F)F)ccc32)cc1                    50

[a] COc1ccc2c(c1)c(Cc1cccc(C(=O)O)c1)c(C)n2C(=O)c1ccc(Cl)cc1
[b] COc1ccc(C(=O)n2c(C)c(Cc3cccc(OC(C)(C)C(=O)O)c3)c3cc(OC(F)(F)F)ccc32)cc1
Determine, for a and b , which has the greater value of EC50. Please identify the chosen entry by its label. a
